measurementNotes: NCI Yeast Anticancer Drug Screen. Data for the wt2 strain (AID 169);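 also: 0% = growth of vehicle-treated yeast cultures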
recordedConditions: S. cerevisiae wt2 strain growth inhibition; at 3.7 µM; stronger effect = higher value
About 79,000 compounds went through this panel and 15% of them were active in at least one assay; those are over-represented in the sample as a whole. Activity calls are given as the source filed them. Rule as the data show it: active = growth inhibition above about 70%; inactive = the rest.

compound	growth inhibition
Cc1cccc(/C=N/NC(=S)N(C)CCc2ccccn2)n1	93% (active)
Cc1c2cc[n+](CCN3CCCCC3)cc2c(C)c2c1[nH]c1ccc(O)cc12	4% (inactive)
BrCc1ccccc1C(c1ccccc1)c1ccccc1	62% (inactive)
Oc1ccc(Br)cc1C=NC1CCCCC1	0% (inactive)
CC1C(C#N)(C#N)C(C#N)=C(N)C1(Cl)[N+](=O)[O-] (stereo unspecified)	7% (inactive)
CCc1[nH]nc(C(N)=O)c1N=NN(C)C	0% (inactive)
C/C=C/[P+](c1ccccc1)(c1ccccc1)c1ccccc1	12% (inactive)
Nc1nc(N)c2c(n1)CCC(S(=O)(=O)c1ccc3ccccc3c1)C2 (stereo unspecified)	-8% (inactive)
c1ccc2c(c1)ccc1c3ccncc3ccc21	0% (inactive)
CC[C@@]1(OC(=O)CN(C)C)C(=O)OCc2c1cc1n(c2=O)Cc2cc3c(N)cccc3nc2-1	1% (inactive)
ClCCn1c(CCl)nc2ccc(Cl)cc21	-13% (inactive)

---

measurementNotes: NCI Yeast Anticancer Drug Screen. Data for the rad50 strain (AID 155);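 also: 0% = growth of vehicle-only cultures of the same strain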
recordedConditions: S. cerevisiae rad50 strain growth inhibition; at 11.0 µM; stronger effect = higher value
The panel holds about 79,000 compounds, 15% with a hit somewhere; the sample as a whole holds those more often.

compound	growth inhibition [%]
Nc1nc(N)c2c(n1)CCC(S(=O)(=O)c1ccc3ccccc3c1)C2 (centres undefined)	32
Cc1cccc2c1N=C(C(F)(F)F)CC2=O	23
COc1ccc(C(C#N)=C2C=CC(=NO)C=C2)cc1	81
CNc1ccc(Cc2c[nH]c3ccccc23)cc1	-41
Oc1ccc(C=Nc2ccccc2O)cc1	81
CC(=O)Oc1ccc(N2C(=O)C3c4[nH]c5ccccc5c4C4CCC(C(C)(C)C)CC4C3C2=O)cc1 (centres undefined)	96
CCNc1ccc2c(c1)C(=O)N(OS(C)(=O)=O)C2=O	8
O=C(NCCCCCN1CCC2(CCCCC2)CC1)C(C1CCCCC1)C1CCCCC1	46
Nc1ccc2c(=S)c3ccccc3[nH]c2c1	8
C/C(=N\NC(=S)NNC(=S)N(C)c1ccccc1)c1ccccn1	97
COc1ccc(N=Nc2ccc3oc(=O)c(C(=O)Nc4ccccc4)cc3c2)cc1	89
CNc1nc(C)nc2c1cnn2-c1ccc([N+](=O)[O-])cc1	16
Cc1cccc(/C=N/NC(=S)N(C)CCc2ccccn2)n1	96
O=C(O)c1[nH]c(=O)c2ccccc2c1Nc1ccccc1	1
CCC(NC(C)c1ccccc1)C(=O)c1ccc(OCc2ccccc2)c(OCc2ccccc2)c1 (centres undefined)	22
Clc1cc(-c2ccccc2)nc2ccccc12	2
Nc1ccc(S(=O)(=O)Nc2ccc(Nc3c4ccccc4nc4ccccc34)cc2)cc1	86
S=C1SCN(CCc2ccccc2)CN1CCc1ccccc1	50
CN(Cc1cnc2nc(N)nc(N)c2n1)c1ccc(C(=O)NC(CCC(=O)O)C(=O)O)c2ccccc12 (centres undefined)	60
COC(=O)c1cccc(C)c1C(=O)c1c(C)cc(C)cc1C	5
CC(C)(O)c1ccccc1C(c1ccccc1)c1ccccc1	4
O=C(/C=C/c1cccc(Br)c1)c1ccc(Cl)cc1	27
S=c1cn[nH]c2ccc(Br)cc12	13
CCCCCC#CCOC(=O)C(=[N+]=[N-])P(=O)(c1ccccc1)c1ccccc1	13
CC(=O)C1=C(C)O/C(=C/c2cccc(Cl)c2)C1=O	21
Clc1c(Cl)c(Cl)c2n[nH]nc2c1Cl	-9
Nc1ccc2c(c1)sc1ccccc12	9
Nc1cc(S(N)(=O)=O)ccc1SSc1ccc(S(N)(=O)=O)cc1N	22
c1ccc2c(c1)ccc1c3ccncc3ccc21	98
S=c1[nH]c2c(Cl)c(Cl)c(Cl)c(Cl)c2[nH]1	59
O=C1c2c(O)cccc2-c2nn(CCNCCO)c3ccc(NCCNCCO)c1c23	74
CC[C@@]1(OC(=O)CCC(=O)O)C(=O)OCc2c1cc1n(c2=O)Cc2cc3ccccc3nc2-1	91
O=C(Nc1cccc(C(F)(F)F)c1)Oc1ccc(Cl)cc1C(=O)c1ccccc1	90
CCOc1ccc(C(=O)CCC(=O)O)c(C)c1	1
